For each of the compounds below, state its IC50.
# MEASUREMENT_TARGET: Recombinant ROCK1 (amino acids 1-477) (Homo sapiens, UniProt Q13464)
# Construct: Recombinant ROCK1 (amino acids 1-477); by word order, ROCK1 from Carna Biosciences
# Sequence (Q13464 1-477): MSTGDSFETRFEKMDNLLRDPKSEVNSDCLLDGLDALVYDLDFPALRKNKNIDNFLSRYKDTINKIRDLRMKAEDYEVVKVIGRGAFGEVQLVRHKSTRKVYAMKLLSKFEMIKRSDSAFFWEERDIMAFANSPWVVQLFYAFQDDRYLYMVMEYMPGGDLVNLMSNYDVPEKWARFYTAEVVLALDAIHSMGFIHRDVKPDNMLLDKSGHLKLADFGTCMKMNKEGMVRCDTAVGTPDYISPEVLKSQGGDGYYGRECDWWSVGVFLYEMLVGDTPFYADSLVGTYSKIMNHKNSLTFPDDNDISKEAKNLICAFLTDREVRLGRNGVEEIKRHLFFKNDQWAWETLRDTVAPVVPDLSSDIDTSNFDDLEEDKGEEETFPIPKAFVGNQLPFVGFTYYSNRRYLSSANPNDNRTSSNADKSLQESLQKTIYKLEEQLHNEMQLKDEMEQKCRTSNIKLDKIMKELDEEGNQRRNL
# PROTOCOL_NOTES: ROCK inhibition assay, LANCE Ultra TR-FRET kinase assay (ROCK1)
# CONDITION_NOTES: 1 μM ATP, 50 nM ULight-CREBtide substrate

Item under review: CNC(=O)c1cccc(Cn2ccc3cc(N4CC5CC(C4)O5)ccc3c2=O)c1 . Reported IC50?
> 501 nM

Which value of IC50 has been reported for CNC(=O)c1cc(F)cc(C(C)n2ccc3cc(-c4cn[nH]c4C(F)(F)F)ccc3c2=O)c1 (centres unmarked) in the records?
11 to 100 nM

Which IC50 is listed for Cc1nocc1-c1ccc2c(=O)n(Cc3cccc(C(=O)Nc4ccon4)c3)ccc2c1 ?
> 501 nM

// query IC50 value for entry CN(C)Cc1ccccc1Cn1ccc2cc(-c3ccnc(N)c3)ccc2c1=O
11 to 100 nM

Give its IC50 value. Item: CNC(=O)c1cccc(Cn2ccc3cc(C4=CCOC4)ccc3c2=O)c1
> 501 nM

Consider the compound Cc1nocc1-c1ccc2c(=O)n(Cc3cc(F)cc(C(=O)Nc4nc5c(s4)CCN(C(C)C)C5)c3)ccc2c1 and give its measured IC50.
11 to 100 nM

Fill blank: measured IC50 of the compound O=c1c2ccc(-c3c[nH]nc3C(F)(F)F)cc2ccn1Cc1cccc(O)c1 is ____.
101 to 500 nM

What value of IC50 has been recorded for this entry: Cc1n[nH]cc1-c1ccc2c(=O)n(Cc3cccc(C(=O)Nc4cccc(OC(F)(F)F)c4)c3)ccc2c1
> 501 nM
